Exercise: for every item that follows, state its recorded polymerase ribozyme fitness (log ratio).
B1: TPR 5TU (parent)
chain: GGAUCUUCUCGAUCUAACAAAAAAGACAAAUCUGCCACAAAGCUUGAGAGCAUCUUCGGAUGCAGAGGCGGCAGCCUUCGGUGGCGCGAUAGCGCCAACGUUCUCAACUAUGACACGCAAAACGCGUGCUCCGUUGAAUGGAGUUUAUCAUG

Variants of: B1
MEASUREMENT PROTOCOL: polymerase ribozyme fitness, log enrichment relative to wild type (log ratio); higher = more active; in vitro selection for triplet polymerase activity
Fewer inactive variants are shown than the library holds.

Examples with their reported polymerase ribozyme fitness (log ratio) follow.
C5U A73U G83A | -0.929
G34U G58U G74U G81A U102A U104C | ≤ -4.2
A28C C51A C76G G83C A110U U127G | ≤ -4.2
A21C A41C A115G | -1.51
C54G C87G C103A C129G C132U | ≤ -4.2
A60U U130G G143C | ≤ -4.2

Go through the list and state polymerase ribozyme fitness (log ratio) for each entry.
1. A12G C75G C93U C108U A110C
2. C38U C93U A121G G124A U135G
3. A60G G70A U78C U130A
4. A3C C18G U56A C57A C93G U146G
5. A30C C75G C103G

Solution:
1: ≤ -4.2; 2: ≤ -4.2; 3: ≤ -4.2; 4: ≤ -4.2; 5: ≤ -4.2

Go through the list and state polymerase ribozyme fitness (log ratio) for each entry.
1. A28G C75G G88A U139G G141C
2. A40C G92U G94A
3. G136C U151G
4. A64U A121C G143A

Solution:
[-3.97, 0.834, "≤ -4.2", "≤ -4.2"]
